B1: Azoarcus group I ribozyme (parent)
chain: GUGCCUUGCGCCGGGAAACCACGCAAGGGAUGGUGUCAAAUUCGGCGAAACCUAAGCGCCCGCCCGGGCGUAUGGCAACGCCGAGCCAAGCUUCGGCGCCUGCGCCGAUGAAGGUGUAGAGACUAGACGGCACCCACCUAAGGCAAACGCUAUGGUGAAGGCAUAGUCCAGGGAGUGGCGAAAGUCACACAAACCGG

variants of: B1; assay: reverse-splicing fitness (ratio to wild type); higher = more active; in vitro selection; Mg2+ level not given
Collected reverse-splicing fitness values appear next to each entry.
test readout: reverse-splicing fitness

C82G A111U A120G A145G C150U C169A U176A	0.0158
C82G A111G A120C A145U C150A C169A U176C	0.0161
C82A A111G A120G A145U C150U C169G	0.0104
A120G A145C C150G C169G U176G	0.00456
C82G A111G A120C A145C U176G	0.00938
C82G A111C A120C C150G C169G U176C	0.00766
C82G A120C U176A	0.0764
C82U A145G C150U C169G U176A	0.0129
C82U A111C A120U C169G U176A	0.0032
C82U A111C A120C A145C U176A	0.00981
C82G A111C A120U C150G C169U U176A	0.00494
A120G C150U C169U	0.284
C82G A111U A120C A145G C150U C169G U176C	0.0196
C82A A120G A145U C169G	0.0204
C82A A111C A145G C150A C169G U176A	0.0152
C82G A120C C150U C169U U176A	0.0159
C82U A111C A120G A145C C169U U176A	0.0137
C82A A120C C150U C169U U176C	0.0147
C82G A111C A145U C150A C169G U176C	0.0181
C82A A120G A145C C169G U176G	0.00403
C82G A120C A145C C150U C169U U176G	0.00439
A145G C150U U176G	0.308

The values you see were collected from the RNAGym collection of RNA variant scans (doi:10.1093/molbev/msab373).
